Each item that follows carries a reported TR-FRET signal.
- measured.on: MAGE-A11:PCF11 (Homo sapiens (Human), UniProt P43364)
- Sequence (P43364 218-429): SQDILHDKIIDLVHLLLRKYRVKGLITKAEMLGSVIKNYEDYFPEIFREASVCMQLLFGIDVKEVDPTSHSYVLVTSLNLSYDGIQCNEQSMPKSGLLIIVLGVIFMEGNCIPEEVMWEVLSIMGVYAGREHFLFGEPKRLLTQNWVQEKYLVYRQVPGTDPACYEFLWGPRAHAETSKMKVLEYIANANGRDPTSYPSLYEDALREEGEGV
- experiment.notes: TR-FRET single point screening at 15 μM
- Format: binding
- Parameters: unit not given here
- cond: single point TR-FRET screening of quinoline compounds against MAGE-A11:PCF11; 15 μM

Here is how some compounds turned out for TR-FRET signal.
{"compound": "CCCN(CCCNc1c2ccc(Cl)cc2nc2ccc(OC)cc12)Cc1c(Cl)ccc(Cl)c1Cl [SJ000523021]", "TR-FRET signal": 40}
{"compound": "CCCN(CCCNc1c2ccc(Cl)cc2nc2ccc(OC)cc12)Cc1ccc(F)c(F)c1 [SJ000520942]", "TR-FRET signal": 0.9703}
{"compound": "CCCN(CCCNc1ccnc2cc(C(F)(F)F)ccc12)Cc1cncc(Br)c1 [SJ000521007]", "TR-FRET signal": 4.323}
{"compound": "CCCN(CCCNc1c2ccc(Cl)cc2nc2ccc(OC)cc12)Cc1ccccc1C(F)(F)F [SJ000520928]", "TR-FRET signal": 14.17}
{"compound": "O=[N+]([O-])c1ccccc1CN(CCCNc1ccnc2cc(Cl)ccc12)Cc1ccccc1 [SJ000361177]", "TR-FRET signal": 16.42}

Noted for c1coc(CNCCCNc2ccnc3cc(CC4CCCCC4)ccc23)c1 [SJ000311250] : its TR-FRET signal reads 40.66

Entry CCCN(CCCNc1ccnc2cc(C(F)(F)F)ccc12)Cc1c(C)cc(C)cc1C [SJ000361264] , TR-FRET signal reported as 19.93

Form: compound = CSC(C)CCNCCCNc1ccnc2cc(Cl)ccc12 (stereo not drawn) [SJ000361121] ; TR-FRET signal = 13.5

get_value(item= CCOC(=O)c1cnc2c(OC)cccc2c1NCCCN1CCOCC1 [SJ000180455] , readout=TR-FRET signal) returns 3.635

Lab note: measured TR-FRET signal of Cn1cc(CNCCCNc2ccnc3cc(C(F)(F)F)ccc23)c2ccccc21 [SJ000521043] was 29.11

====

Below is a list of entries, each paired with its recorded TR-FRET signal value.
- measured.on: MAGE-A11:PCF11 (Homo sapiens (Human), UniProt P43364)
- experiment.notes: TR-FRET single point screening at 15 μM
- Type: binding
- Design: unit not given here
- cond: single point TR-FRET screening of quinoline compounds against MAGE-A11:PCF11; 15 μM
API doc: respond with a numeric literal and nothing else, no unit.

{"smiles.representation": "Clc1ccc2c(NCCCN(Cc3ccccc3)Cc3ccncc3)ccnc2c1", "TR-FRET signal": "−5.573"}
{"smiles.representation": "CCCN(CCCNc1ccnc2cc(C(F)(F)F)ccc12)Cc1ncc[nH]1", "TR-FRET signal": 9.345}
{"smiles.representation": "CCCN(CCCNc1ccnc2cc(C(F)(F)F)ccc12)Cc1ccsc1", "TR-FRET signal": 28.88}
{"smiles.representation": "CCCN(CCCNc1ccnc2cc(Cl)ccc12)CC(C)C", "TR-FRET signal": 11.45}
{"smiles.representation": "c1coc(CNCCCNc2ccnc3cc(C4CCCCC4)ccc23)c1", "TR-FRET signal": 32.96}

Per the record, `CCCN(CCCNc1ccnc2cc(C(F)(F)F)ccc12)Cc1nccs1` has TR-FRET signal of 8.665

The compound identified as `CCCN(CCCNc1ccnc2cc(C(F)(F)F)ccc12)Cc1ccc(OC)c(OC)c1` registered its TR-FRET signal at 14.66
